Tested on: β-secretase endoprotease activity in chromaffin vesicle lysate
Method summary: Protease inhibitors of β-secretase endoprotease activity in chromaffin vesicle lysate (Z*Val-Lys-Met-MCA cleavage, with aminopeptidase M)
Assay type: biochemical, bovine
Details: chromaffin vesicle lysate
Measure name: inhibition of β-secretase endoprotease activity in the lysate, in words

CC(=O)N[C@@H](CC(C)C)C(=O)N[C@@H](CC(C)C)C(=O)N[C@H](C=O)CCCNC(=N)N : completely inhibited
CC(C)CCNC(=O)[C@H](CC(C)C)NC(=O)[C@H]1O[C@@H]1C(=O)O [E64c] : completely inhibited
O=C(O)c1cc[c]([Hg][OH])cc1 : greatly inhibited
CC(C)C[C@H](NC(=O)[C@@H](NC(=O)N[C@@H](Cc1ccccc1)C(=O)O)[C@@H]1CCN=C(N)N1)C(=O)N[C@H](C=O)Cc1ccccc1 : greatly inhibited
